The reported numbers originate from paper PMC4057637.

test system: S. epidermidis ATCC 35984; assay: Derivatives combined with vancomycin or cefazolin (FIC index); type: cell-based; settings: line paired with cefazolin
MEASURED_ATTRIBUTE: MIC Derivative alone (µg/mL)
Provide only the numeric value, understood in µg/mL.

Give MIC Derivative alone for the following molecule: O=C(O)COc1ccc(C=C2SC(=Nc3ccc(Cl)cc3)N(c3ccc(Cl)cc3)C2=O)cc1 [H2-74] 0.8

Kindly indicate its recorded MIC Derivative alone. Item: O=C(O)c1ccc(-c2ccc(/C=C3\S/C(=N\c4ccccc4)N(c4ccc(F)cc4)C3=O)s2)cc1 [H2-81] 0.7

// Input: O=C(O)c1ccc(-c2ccc(C=C3SC(=Nc4ccc(Cl)cc4)N(c4ccc(Cl)cc4)C3=O)o2)cc1 [H2-39] . Output its MIC Derivative alone only. 0.8

Specify measured MIC Derivative alone for O=C(O)c1cccc(-c2ccc(C=C3SC(=Nc4ccc(Cl)cc4)N(c4ccc(Cl)cc4)C3=O)o2)c1 [H2-38] . 0.8

###

system: S. epidermidis ATCC 35984; assay: MIC and MBC assays, broth dilution; assay type: cell-based; settings: S. epidermidis ATCC 35984
Quick reference for MIC/MBC among some compounds

// solved cases for MIC/MBC follow
Find the measured MIC/MBC of O=C(O)c1ccc(-c2ccc(/C=C3\S/C(=N\c4ccccc4)N(c4ccc(F)cc4)C3=O)s2)cc1 and report it. 1/4

Give reported MIC/MBC value for CCc1ccccc1/N=C1\S/C(=C\c2ccc(OCC(=O)O)c(OC)c2)C(=O)N1c1ccccc1CC 1/4

Check the records and state MIC/MBC for O=C(O)c1ccc(-c2ccc(/C=C3\S/C(=N\c4ccccc4)N(c4ccc(Cl)cc4)C3=O)o2)cc1 1/4

State, in one line, measured MIC/MBC of O=C(O)c1cccc(-c2ccc(C=C3SC(=Nc4ccc(Cl)cc4)N(c4ccc(Cl)cc4)C3=O)o2)c1 1/8

Determine its reported MIC/MBC: O=C(O)COc1ccc(C=C2SC(=Nc3ccc(Cl)cc3)N(c3ccc(Cl)cc3)C2=O)cc1 1/16

Could you please provide reported MIC/MBC for O=C(O)c1ccc(-c2ccc(C=C3SC(=Nc4ccc(Cl)cc4)N(c4ccc(Cl)cc4)C3=O)o2)cc1 ? Thanks! 1/8

Please examine the following record next.
Identify measured MIC/MBC associated with O=C(O)c1ccc(-c2ccc(C=C3SC(=Nc4ccc(F)cc4)N(c4ccc(F)cc4)C3=O)s2)cc1 1/8

###

system: Clinical MRSE strains; experiment: MIC, broth dilution; format: cell-based, S. epidermidis; conditions: Staphylococcus epidermidis; Clinical MRSE strains (n = 5)
The entries below are paired with their reported MIC.

These recorded examples may help you get a feel for the data.
Identify the reported MIC for the following entry. O=C(O)COc1ccc(C=C2SC(=Nc3ccc(Cl)cc3)N(c3ccc(Cl)cc3)C2=O)cc1 [H2-74] 3.1 to 6.3 µM

Give recorded MIC. O=C(O)c1ccc(-c2ccc(C=C3SC(=Nc4ccc(Cl)cc4)N(c4ccc(Cl)cc4)C3=O)o2)cc1 [H2-39] 1.5 to 3.1 µM

Output measured MIC for this item: O=C(O)c1cccc(-c2ccc(C=C3SC(=Nc4ccc(Cl)cc4)N(c4ccc(Cl)cc4)C3=O)o2)c1 [H2-38] 1.5 to 3.1 µM

Determine its reported MIC: O=C(O)c1ccc(-c2ccc(/C=C3\S/C(=N\c4ccccc4)N(c4ccc(F)cc4)C3=O)s2)cc1 [H2-81] 1.5 µM

Supply MIC value. Item: O=C(O)c1ccc(-c2ccc(C=C3SC(=Nc4ccc(F)cc4)N(c4ccc(F)cc4)C3=O)s2)cc1 [H2-60] 1.5 to 3.1 µM

Give the value of MIC reported for the following: CCc1ccccc1/N=C1\S/C(=C\c2ccc(OCC(=O)O)c(OC)c2)C(=O)N1c1ccccc1CC [Compound 2] 25 to 50 µM

Consider now this further compound.
Retrieve MIC measured for O=C(O)c1ccc(-c2ccc(/C=C3\S/C(=N\c4ccccc4)N(c4ccc(Cl)cc4)C3=O)o2)cc1 [H2-57] and print it. 1.5 to 3.1 µM
